Source of measurements: the RNAGym collection of RNA variant scans (doi:10.7554/elife.90254)

Parameter self-cleavage: see the listing below.
B1: OR4K15 (parent)
chain: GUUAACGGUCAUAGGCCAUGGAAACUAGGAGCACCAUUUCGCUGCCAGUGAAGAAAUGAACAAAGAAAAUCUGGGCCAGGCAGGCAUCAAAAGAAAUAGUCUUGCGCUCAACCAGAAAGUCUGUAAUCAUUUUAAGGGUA

# Variants of: B1
# PROCEDURE_SUMMARY: self-cleavage, relative activity (ratio to wild type); higher = more cleavage; in vitro, sequencing; the parent is a self-cleaving ribozyme
# print the numeric value only

Completed entries (count: 4):
>>> recorded_number("GUUAACGGUCAUAGGCCAUGGAAACUAGGAGCACCAUUUCGCUGCCAGUGAAGAAAUGAACAAAGAAAUUCUGGGCCAGGCAGGCAUCAAAAGAAAUAGUCUUGCGCUCAACCAGAAAGUCUGUACUCAUUUUAAGGGUA")
1.66
>>> recorded_number("GUUAACGGUCAUAGGCCAUGGAAACUAGGAGCACCAUUGCGCUGCCAGUGAAGAAAUGAACAAAGAAAAUCUGGGCCAGGCAGGCAUCAAAAGAAAUAGUCUUGCGCUCAACCAGAAAGUCUGUGAUCAUUUUAAGGGUA")
0.62
>>> recorded_number("GUUAACGGUCAUAGGCCAUGGAAACUAGGAGCACCAUUUCGCUGCCAGUGAUGAAAUGAACAAAGAAAAUCUGGGCCAGGCAGGCAUCAAAAGAAAUAGUCUUGCGCUCAACCAGAAAGUCUGUAAUCAUAUUAAGGGUA")
1.49
>>> recorded_number("GUUAACGGUCAUAGGCCAUGGAAACUAGGAGCACCAUUUCGCCGCCAGUGAAGAAAUGAACAAAGAAAAUCUGGGCCAGGCAGGCAUCAAAAGAAAUAGUCUUGCGCUCAACCAGAAAGUCUGUAAUCAUUUUAAAGGUA")
1.75

[Q] Item GUUAACGGUCAUAGGCCUUGGAAACUAGGAGCACCAUUUCGCUGCCAGUGAAGAAAUAAACAAAGAAAAUCUGGGCCAGGCAGGCAUCAAAAGAAAUAGUCUUGCGCUCAACCAGAAAGUCUGUAAUCAUUUUAAGGGUA has what recorded self-cleavage?
[A] 1.09
